ASSAY_SYSTEM: HPK1 (Homo sapiens (Human), UniProt Q92918)
Sequence (Q92918 whole entry, species assumed): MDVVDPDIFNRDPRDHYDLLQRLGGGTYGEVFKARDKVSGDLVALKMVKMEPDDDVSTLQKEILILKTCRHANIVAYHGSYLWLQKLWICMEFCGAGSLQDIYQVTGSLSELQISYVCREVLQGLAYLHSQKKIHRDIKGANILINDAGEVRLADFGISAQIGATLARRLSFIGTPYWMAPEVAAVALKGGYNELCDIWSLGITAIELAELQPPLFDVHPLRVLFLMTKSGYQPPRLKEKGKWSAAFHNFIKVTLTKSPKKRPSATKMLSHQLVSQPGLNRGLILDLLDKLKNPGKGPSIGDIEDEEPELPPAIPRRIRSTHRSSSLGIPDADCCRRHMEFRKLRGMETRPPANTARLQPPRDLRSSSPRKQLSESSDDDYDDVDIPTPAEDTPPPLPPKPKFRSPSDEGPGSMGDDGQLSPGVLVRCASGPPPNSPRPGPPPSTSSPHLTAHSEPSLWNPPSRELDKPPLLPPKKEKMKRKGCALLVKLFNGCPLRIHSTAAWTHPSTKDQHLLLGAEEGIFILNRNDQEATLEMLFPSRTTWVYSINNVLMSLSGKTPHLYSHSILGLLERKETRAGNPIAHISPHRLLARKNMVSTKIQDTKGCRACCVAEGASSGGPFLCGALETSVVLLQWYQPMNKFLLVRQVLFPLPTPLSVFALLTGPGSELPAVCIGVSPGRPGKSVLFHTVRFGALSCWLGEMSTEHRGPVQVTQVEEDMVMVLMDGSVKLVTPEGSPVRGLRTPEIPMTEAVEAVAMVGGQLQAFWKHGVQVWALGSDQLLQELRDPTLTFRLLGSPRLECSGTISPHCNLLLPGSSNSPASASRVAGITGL
EXPERIMENTAL_DETAILS: HPK1 enzyme activity detection (1 mM ATP system), ADP-Glo with MBP substrate, Pharmacological Experiment 2
Assay type: biochemical
Experimental: Pharmacological Experiment 2: […] The test compound was serially diluted using DMSO to 200 times the detection concentration. […] Centrifuge at 1000×g for 30 seconds and incubate at 25° C. for 15 minutes. • (5) Adding ATP and substrate: Add 2 μL of 2×ATP-MBP solution to the 384-well plate and centrifuge at 1000×g for 30 seconds. […] The chemiluminescent signal was read using a BMG instrument. • (8) Calculation of percentage inhibition rate: […] […]
QUANTITY_KIND: IC50 (nM)

> print(dat)
                                   compound  quantity.kind  reported.value
1  CO[C@@H]1CCN(C2CC3(CCOCC3)c3ccc(Nc4ccc(-c5cnc6cc(F)ccn56)c5c4C(=O)NC5)nc32)C1 (stereo partly shown)           IC50            3.48
2  CN(C)C1CC2(CCOC2)c2ccc(Nc3ccc(-c4cnc5cc(OC(F)F)ccn45)c4c3C(=O)NC4)nc21 (stereo not shown)           IC50            13.8
3  O=C1NCc2c(-c3cnc4n3CCOC4)ccc(Nc3ccc4c(n3)CNCC43CCOCC3)c21           IC50            34.5
4  CN(C)C1CC2(CCOCC2)c2ccc(Nc3ccc(-c4cnc5c(F)cccn45)c4c3C(=O)NC4)nc21 (stereo not shown)           IC50            5.41
5  CN(C)C1COC2(CCOCC2)c2ccc(Nc3ccc(-c4cnc5cc(Cl)ccn45)c4c3C(=O)NC4)nc21 (stereo not shown)           IC50            2.61
6  CN(C)C1CC2(CCOCC2)c2ccc(Nc3ccc(-c4cnc5cc(F)ccn45)c4c3C(=O)NC4)nc21 (stereo not shown)           IC50            11.2
7  O=C1NCc2c(-c3cnc4cc(F)ccn34)ccc(Nc3ccc4c(n3)C(N3C[C@H]5C[C@@H]3CO5)CC43CCOCC3)c21 (stereo partly shown) [Compound 110]           IC50            2.67
